Data provenance is PubChem BioAssay (NCI).

Readings of growth inhibition for the listed compounds
Assay: NCI Yeast Anticancer Drug Screen. Data for the rad50 strain (AID 155);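 note: 0% = growth of vehicle-only cultures of the same strain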
Conditions: S. cerevisiae rad50 strain growth inhibition; at 50.0 µM; stronger effect = higher value
This is part of a sample that, as a whole, favours compounds with a hit. Of some 79,000 tested, about 15% had one in any assay.
Express it in %; write the number only.

compound="CC1CN(c2nc3ccccc3o2)C(C)CN1c1nc2ccccc2o1 (configuration not stated)" valuereported=-7.15
compound="CN(C)CC(Cc1ccccc1)c1ccccc1 (configuration not stated)" valuereported=-19.9
compound="CCN(CC)C(=O)C(C(=O)OC)c1ccccc1 (configuration not stated)" valuereported=-4.6
compound=COc1ccc(NC(=O)Nc2ccc(Cl)cc2C)cc1 valuereported=-13.4
compound=CNC(=O)Nc1ccccc1 valuereported=27.4
compound="CC1=NOC2(C1)C(=O)Nc1ccccc12 (configuration not stated)" valuereported=23.2
compound=NCCCc1ccc2oc3ccccc3c2c1 valuereported=23.8
compound=COc1cc2cc(-c3ccc(Cl)c(Cl)c3)[n+](C)cc2cc1OC valuereported=36

Query compound follows.
**Query** Return value of growth inhibition for input N#CC1CC12c1ccccc1C(=O)c1ccccc12 (configuration not stated) , no commentary.
**Result** -1.9
